- Test system: PfAP2-I AP2 domain 3 (GST-tagged)
- Protocol Text: gcPBM binding intensity (ln(normalized median fluorescence intensity)); higher = stronger DNA binding
Whole data set: some 25,000 sequences, median “ln(normalized median fluorescence intensity)” near 7.9, cut for the highest 2% near 11. This is one part of a sample in which the highest values are shown more often than they occur.
Reported Metric: gcPBM binding intensity (ln)

# count of solved cases: 10
GGTATATTAAAATAGGTGCATAAAACTAAGAGAAAA [GTGCAC_site9781]    11.3
TATTTTATATAAAGGTGTACTTATACAAAAATATAT [XGTACX_site7435]    8.14
CAACCATTTGTAGGTAAACACACATTATTATTAATA [CACACA_site8842]    7.47
GTGAAATATGCAAACACACACGAGAAAAATGTATAT [CACACA_site7488]    8.19
ACAAAAATAAGCAAATGTACATATGTATAATATATT [XGTACX_site2492]    7.77
AGAAGAAAAGTAAAAAGTACATTATTCATGGCCTAT [XGTACX_site5601]    7.46
TAGTGATATAATTATGTGCACTTAATACAGGTCGAT    10.9
AATACACATAATACATGTACTCACATTGTTATAACA [XGTACX_site4129]    8.04
TAAATAAAAAAAAAAAGTACATACATACAAACATAT [XGTACX_site4427]    7.79
TCTAATTTAAAATACACACACATATCTATAATATAT [CACACA_site7029]    7.63

Identify measured gcPBM binding intensity (ln) associated with TGTGAAAATTATGGGGCATGCAATACTTTAAAAATA [TGCATGCA_site653] 7.98

Identify measured gcPBM binding intensity (ln) associated with AATGAGAAGGACTGCACACTAAAATGGAAGGAGAAA [CACACA_site1575] 8.28

Identify measured gcPBM binding intensity (ln) associated with TATAAATACTAAAAAAGTACAAAATTTCATAAAAAA [XGTACX_site2709] 7.82

Identify measured gcPBM binding intensity (ln) associated with AAGAAGAGTTATTGTAGTACATTTTTAAATGTAATA [XGTACX_site7664] 7.73

Identify measured gcPBM binding intensity (ln) associated with AAATACTGATTTGGTTGTACATGTGCACTATATAAC [XGTACX_site3795] 11.3
